Catalogue of compounds with associated Pain threshold Increase Ratio
# System: pain threshold in mice
# measurement.notes: Analgetic effect, Pressure Test (pain threshold, tail pressure)
# Format: in vivo, dd Male mice
# measurement.conditions: 100 mg/kg oral
result.type: Pain threshold Increase Ratio

compound="O=C1NCC(Cc2ccccc2Cl)O1 (centres unmarked)" endpoint_result=1.89
compound="O=C1NCC(Cc2ccccc2F)O1 (centres unmarked)" endpoint_result=1.13
compound="O=C1NCC(Cc2ccccc2)O1 (centres unmarked)" endpoint_result=1.34
compound="O=C1NCC(Cc2ccccc2C(F)(F)F)O1 (centres unmarked)" endpoint_result=1.28
compound="CN1CC(Cc2ccccc2)OC1=O (centres unmarked)" endpoint_result=1.36

---

Catalogue of compounds with associated Inhibitory per cent, carrageenan-induced edema, 4 hrs.
# Test system: carrageenan-induced edema in rats
# measurement.notes: Antiinflammatory effect on carrageenan-induced edema
# Assay type: in vivo, Wistar male rats
# measurement.conditions: Table 6; 100 mg/kg oral; 4 hrs.
result.type: Inhibitory per cent, carrageenan-induced edema, 4 hrs. (per cent)

compound="CCc1ccccc1CC1CNC(=O)O1 (stereo not shown)" unit="per cent" endpoint_result=28.9
compound="O=C1NCC(Cc2ccccc2Oc2ccccc2)O1 (stereo not shown)" unit="per cent" endpoint_result=30.8
compound="O=C1NCC(Cc2ccccc2-c2ccccc2)O1 (stereo not shown)" unit="per cent" endpoint_result=15.6
compound="CCCCC1C(=O)N(c2ccccc2)N(c2ccccc2)C1=O [Phenylbutazone, reference compound]" unit="per cent" endpoint_result=68.2

---

# Test system: pain threshold in mice
# measurement.notes: Analgetic effect, Pressure Test (pain threshold, tail pressure)
# Assay type: in vivo, dd Male mice
# measurement.conditions: 100 mg/kg oral; 120 min; *p <0.05, **p <0.01, ***p <0.001
Kindly apply the following: MET if Pain threshold, Mean ± SE, 120 min is less than 50 mmHg, NOT MET in every other case.

compound="O=C1NCC(Cc2ccccc2Cl)O1 (stereo not drawn) [IV, 5-(o-chlorobenzyl)-2-oxazolidone]" answer_label="NOT MET"
compound="O=C1NCC(Cc2ccccc2F)O1 (stereo not drawn) [XIII, 5-(o-fluorobenzyl)-2-oxazolidone]" answer_label=MET
compound="O=C1NCC(Cc2ccccc2C(F)(F)F)O1 (stereo not drawn) [VIII]" answer_label="NOT MET"
compound="O=C1NCC(Cc2ccc(Cl)cc2)O1 (stereo not drawn) [Compound V, 5-(p-chlorobenzyl)-2-oxazolidone]" answer_label=MET
compound="O=C1NCC(Cc2ccccc2Br)O1 (stereo not drawn) [XII, 5-(o-bromobenzyl)-2-oxazolidone]" answer_label="NOT MET"
compound="CN1CC(Cc2ccccc2)OC1=O (stereo not drawn) [II, 5-benzyl-3-methyl-2-oxazolidone]" answer_label=MET
compound="COc1ccccc1CC1CNC(=O)O1 (stereo not drawn) [III, 5-(o-methoxybenzyl)-2-oxazolidone]" answer_label=MET
compound="Cc1c(N(C)C)c(=O)n(-c2ccccc2)n1C [Aminopyrine, reference compound]" answer_label="NOT MET"

---

Catalogue of compounds with associated responders at 500 mg/kg
# System: mice
# measurement.notes: Muscular relaxing effect, Rotarod Method (R.R), oral, mice
# Assay type: in vivo, dd Male mice
# measurement.conditions: Mus musculus; Table 2; 500 mg/kg; oral; mice; read-out: Inhibition percent of the central muscular relaxing effect, R.R (Rotarod Method)
# Description: dd Male mice weighing 18 to 22 g, one group consisting of 10 animals, were orally given the compounds (I) to (V) as indicated below suspended in 0.2% carboxymethylcellulose solution in a dose of 0.25ml/10g-body weight. Mephenesin was used as active placebo. Mice were placed on Rotar Load (made by Natsume Seisakusho Co., Ltd.) having a diameter of 3 cm rotating at a speed of 10 rpm and falling (occurring within 3 minutes) was observed.
result.type: responders at 500 mg/kg

compound="CCc1ccc(CC2CNC(=O)O2)cc1 (stereo not drawn) [VII, 5-(p-ethylbenzyl)-2-oxazolidone]" target_of_assay=mice endpoint_result=80%
compound="O=C1NCC(Cc2ccc(F)cc2)O1 (stereo not drawn) [Compound XI, 5-(p-fluorobenzyl)-2-oxazolidone]" target_of_assay=mice endpoint_result=100%
compound="O=C1NCC(Cc2cccc(C(F)(F)F)c2)O1 (stereo not drawn) [IX]" target_of_assay=mice endpoint_result=90%
compound="O=C1NCC(Cc2ccccc2C(F)(F)F)O1 (stereo not drawn) [VIII]" target_of_assay=mice endpoint_result=90%
compound="CCc1ccccc1CC1CNC(=O)O1 (stereo not drawn) [Compound VI, 5-(o-ethylbenzyl)-2-oxazolidone]" target_of_assay=mice endpoint_result=60%
compound="O=C1NCC(Cc2ccccc2F)O1 (stereo not drawn) [XIII, 5-(o-fluorobenzyl)-2-oxazolidone]" target_of_assay=mice endpoint_result=90%
compound="O=C1NCC(Cc2ccccc2Br)O1 (stereo not drawn) [XII, 5-(o-bromobenzyl)-2-oxazolidone]" target_of_assay=mice endpoint_result=100%
compound="Cc1ccccc1OCC(O)CO (stereo not drawn) [Mephenesin, reference compound]" target_of_assay=mice endpoint_result=80%
compound="C=CCOc1ccccc1CC1CNC(=O)O1 (stereo not drawn) [Compound X, 5-(o-allyloxybenzyl)-2-oxazolidone]" target_of_assay=mice endpoint_result=80%
